Data origin: ChEMBL document CHEMBL4513216

experiment: Toxicity liver stage against HepG2, at 10uM; assay type: cell-based; set-up: test concentration 10 uM, cell line HepG2-A16-CD81EGFP; details: human, HepG2-A16-CD81EGFP cells; read-out: INHIBITION
measurement type: cytotoxicity at 10 µM
Be sure to follow the number with its unit.

molecule | recorded value
CC(=O)N1CCCC2(CN(Cc3ccccc3C(F)(F)F)CCO2)C1 (stereo not given) | 7.28%

Measured cytotoxicity at 10 µM of CCOc1ccc(Cl)cc1C(C(=O)O)N1CCC(CO)CC1 (stereo not given) : 2.93%

Measured cytotoxicity at 10 µM of CSc1nccc(N2CCC3(CCCN(CC4CC4)C3)C2)n1 (stereo not given) : -10.1%

Measured cytotoxicity at 10 µM of `O=C1COc2ccc(Cl)cc2CN1CC1CC1` : -9.2%
